system-under-test: EGFR (human) (UniProt P00533)
Sequence (P00533 whole entry, looked up): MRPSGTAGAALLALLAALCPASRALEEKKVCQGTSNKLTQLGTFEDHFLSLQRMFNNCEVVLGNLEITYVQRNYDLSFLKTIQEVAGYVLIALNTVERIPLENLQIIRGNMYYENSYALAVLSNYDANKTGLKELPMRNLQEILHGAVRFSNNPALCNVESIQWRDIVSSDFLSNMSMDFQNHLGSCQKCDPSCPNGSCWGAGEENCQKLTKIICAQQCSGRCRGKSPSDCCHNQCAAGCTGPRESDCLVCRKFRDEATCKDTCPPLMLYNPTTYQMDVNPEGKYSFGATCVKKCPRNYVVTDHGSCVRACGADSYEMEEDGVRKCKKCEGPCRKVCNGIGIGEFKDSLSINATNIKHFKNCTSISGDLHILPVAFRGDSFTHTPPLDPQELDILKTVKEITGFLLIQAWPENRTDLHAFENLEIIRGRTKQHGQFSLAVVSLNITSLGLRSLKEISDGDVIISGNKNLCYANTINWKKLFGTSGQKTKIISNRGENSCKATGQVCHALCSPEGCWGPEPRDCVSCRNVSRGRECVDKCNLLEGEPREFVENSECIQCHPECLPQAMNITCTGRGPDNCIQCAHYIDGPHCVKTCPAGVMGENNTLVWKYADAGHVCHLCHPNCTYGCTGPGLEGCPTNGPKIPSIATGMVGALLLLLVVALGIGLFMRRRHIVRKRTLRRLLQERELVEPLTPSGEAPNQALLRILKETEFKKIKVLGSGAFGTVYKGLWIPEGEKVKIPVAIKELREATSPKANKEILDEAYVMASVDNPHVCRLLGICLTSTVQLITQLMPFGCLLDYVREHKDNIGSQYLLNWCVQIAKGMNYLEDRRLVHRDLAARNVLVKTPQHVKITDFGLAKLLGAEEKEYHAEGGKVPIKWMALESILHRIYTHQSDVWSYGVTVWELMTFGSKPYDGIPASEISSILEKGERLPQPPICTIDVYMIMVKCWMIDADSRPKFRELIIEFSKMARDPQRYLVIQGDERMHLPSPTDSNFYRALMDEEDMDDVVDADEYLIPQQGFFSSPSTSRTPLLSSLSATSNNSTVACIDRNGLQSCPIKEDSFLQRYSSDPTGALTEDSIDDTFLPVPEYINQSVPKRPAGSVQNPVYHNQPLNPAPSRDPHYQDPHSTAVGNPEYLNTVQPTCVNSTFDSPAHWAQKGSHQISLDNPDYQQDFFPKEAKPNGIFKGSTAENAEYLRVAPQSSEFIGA
condition-parameters: lox
Measured IC50 values are reported for all entries that follow.
State the answer as a number, implicitly in µg/mL.

// worked examples, IC50 included
# smiles-representation, system-under-test, IC50 (µg/mL)
data = [
    ("CC#CC(=O)Nc1cc2c(Nc3cccc(Br)c3)c(C#N)cnc2cn1", "EGFR (human) (UniProt P00533)", 0.07),
    ("N#Cc1cnc2cnc(NCCN3CCOCC3)cc2c1Nc1cccc(Br)c1", "EGFR (human) (UniProt P00533)", 57),
    ("CN(C)c1cc[n+](-c2cc3c(Nc4cccc(Br)c4)c(C#N)cnc3cn2)cc1", "EGFR (human) (UniProt P00533)", 56),
]

Note: attention shifts to another entry.
CNc1cc2c(Nc3cccc(Br)c3)c(C#N)cnc2cn1 has a reported IC50 of 3.6

---

system-under-test: EGFR (human)
condition-parameters: skbr3
Measured log10 IC50 values are reported for all entries that follow.
Note: values are log10 of IC50 expressed in µg/mL.

# smiles-representation, system-under-test, log10 IC50
measured = [
    ("CN(C)C/C=C/C(=O)Nc1cc2c(Nc3cccc(Br)c3)c(C#N)cnc2cn1", "EGFR (human)", -1.45),
    ("CN(C)CCOc1cc2c(Nc3ccc(F)c(Cl)c3)c(C#N)cnc2cn1", "EGFR (human)", 0.67),
    ("N#Cc1cnc2cnc(N)cc2c1Nc1cccc(Br)c1", "EGFR (human)", 0.61),
    ("CNc1cc2c(Nc3cccc(Br)c3)c(C#N)cnc2cn1", "EGFR (human)", 0.27),
    ("C[Si](C)(C)C#Cc1cc2c(Nc3cccc(Br)c3)c(C#N)cnc2cn1", "EGFR (human)", 0.56),
    ("CN(C)c1cc[n+](-c2cc3c(Nc4cccc(Br)c4)c(C#N)cnc3cn2)cc1", "EGFR (human)", 1.61),
    ("CN(C)C/C=C/C(=O)Nc1cnc2ncc(C#N)c(Nc3cccc(Br)c3)c2c1", "EGFR (human)", 0.68),
    ("COc1ccc(CNc2cc3c(Nc4cccc(Br)c4)c(C#N)cnc3cn2)cc1", "EGFR (human)", 0.46),
]

CC#CC(=O)Nc1cc2c(Nc3cccc(Br)c3)c(C#N)cnc2cn1 has a reported log10 IC50 of -0.92

---

system-under-test: UniProtKB P00533
condition-parameters: sw 620
measurement-kind: IC50

CNc1cc2c(Nc3cccc(Br)c3)c(C#N)cnc2cn1 has a reported IC50 of 4.62 µg/mL

CN(C)CCOc1cc2c(Nc3ccc(F)c(Cl)c3)c(C#N)cnc2cn1 has a reported IC50 of > 5 µg/mL

CN(C)C/C=C/C(=O)Nc1cnc2ncc(C#N)c(Nc3cccc(Br)c3)c2c1 has a reported IC50 of > 5 µg/mL

---

Measured IC50 values are reported for all entries that follow.
system-under-test: EGFR (human)
condition-parameters: mda435
State the answer as a number, implicitly in µg/mL.

# smiles-representation, system-under-test, IC50 [µg/mL]
measured = [
    ("C[Si](C)(C)C#Cc1cc2c(Nc3cccc(Br)c3)c(C#N)cnc2cn1", "EGFR (human)", 4.2),
    ("N#Cc1cnc2cnc(NCCN3CCOCC3)cc2c1Nc1cccc(Br)c1", "EGFR (human)", 49),
    ("CC#CC(=O)Nc1cc2c(Nc3cccc(Br)c3)c(C#N)cnc2cn1", "EGFR (human)", 0.88),
]

Note: attention shifts to another entry.
CNc1cc2c(Nc3cccc(Br)c3)c(C#N)cnc2cn1 has a reported IC50 of 0.98

---

system-under-test: EGFR (human) (UniProt P00533)
condition-parameters: a431
Measured IC50 values are reported for all entries that follow.
State the answer as a number, implicitly in µg/mL.

// worked examples, IC50 included
# smiles-representation, IC50 [µg/mL]
measured = [
    ("C[Si](C)(C)C#Cc1cc2c(Nc3cccc(Br)c3)c(C#N)cnc2cn1", 3.06),
    ("CN(C)c1cc[n+](-c2cc3c(Nc4cccc(Br)c4)c(C#N)cnc3cn2)cc1", 59),
    ("COc1ccc(CNc2cc3c(Nc4cccc(Br)c4)c(C#N)cnc3cn2)cc1", 0.4),
]

CC#CC(=O)Nc1cc2c(Nc3cccc(Br)c3)c(C#N)cnc2cn1 has a reported IC50 of 0.23

CN(C)CCOc1cc2c(Nc3ccc(F)c(Cl)c3)c(C#N)cnc2cn1 has a reported IC50 of 2.23

---

system-under-test: EGFR (human) (UniProt P00533)
condition-parameters: a2780ddp
Quick rule for you: IC50 under 3 µg/mL gets Criterion met, anything else gets Criterion not met.

// query State whether 3 µg/mL exceeds IC50 recorded for N#Cc1cnc2cnc(N)cc2c1Nc1cccc(Br)c1 .
// result Criterion not met

// query State whether 3 µg/mL exceeds IC50 recorded for CC#CC(=O)Nc1cc2c(Nc3cccc(Br)c3)c(C#N)cnc2cn1 .
// result Criterion met

// query State whether 3 µg/mL exceeds IC50 recorded for N#Cc1cnc2cnc(F)cc2c1Nc1cccc(Br)c1 .
// result Criterion not met

// query State whether 3 µg/mL exceeds IC50 recorded for CN(C)c1cc[n+](-c2cc3c(Nc4cccc(Br)c4)c(C#N)cnc3cn2)cc1 .
// result Criterion not met

// query State whether 3 µg/mL exceeds IC50 recorded for CN(C)C/C=C/C(=O)Nc1cnc2ncc(C#N)c(Nc3cccc(Br)c3)c2c1 .
// result Criterion not met

// query State whether 3 µg/mL exceeds IC50 recorded for COc1ccc(CNc2cc3c(Nc4cccc(Br)c4)c(C#N)cnc3cn2)cc1 .
// result Criterion met

---

system-under-test: EGFR (human) (UniProt P00533)
condition-parameters: a2780s
Quick rule for you: IC50 under 2 µg/mL gets T, anything else gets F.

As a guide, the following entries are already answered.
# smiles-representation, assigned-category
measured = [
    ("N#Cc1cnc2cnc(F)cc2c1Nc1cccc(Br)c1", "F"),
    ("CN(C)c1cc[n+](-c2cc3c(Nc4cccc(Br)c4)c(C#N)cnc3cn2)cc1", "F"),
    ("COc1ccc(CNc2cc3c(Nc4cccc(Br)c4)c(C#N)cnc3cn2)cc1", "T"),
    ("C[Si](C)(C)C#Cc1cc2c(Nc3cccc(Br)c3)c(C#N)cnc2cn1", "F"),
    ("N#Cc1cnc2cnc(NCCN3CCOCC3)cc2c1Nc1cccc(Br)c1", "T"),
    ("N#Cc1cnc2cnc(N)cc2c1Nc1cccc(Br)c1", "F"),
]

// query State whether 2 µg/mL exceeds IC50 recorded for CN(C)C/C=C/C(=O)Nc1cnc2ncc(C#N)c(Nc3cccc(Br)c3)c2c1 .
// result T

---

Measured IC50 values are reported for all entries that follow.
system-under-test: EGFR (human)
condition-parameters: mda435

// worked examples, IC50 included
# smiles-representation, system-under-test, IC50
measured = [
    ("CN(C)C/C=C/C(=O)Nc1cnc2ncc(C#N)c(Nc3cccc(Br)c3)c2c1", "EGFR (human)", "> 5 µg/mL"),
    ("N#Cc1cnc2cnc(F)cc2c1Nc1cccc(Br)c1", "EGFR (human)", "> 5 µg/mL"),
]

Note: attention shifts to another entry.
N#Cc1cnc2cnc(N)cc2c1Nc1cccc(Br)c1 has a reported IC50 of > 5 µg/mL

---

system-under-test: EGFR (human) (UniProt P00533)
condition-parameters: sw 620
measurement-kind: log10 IC50 (log10 of the value in µg/mL)
Note: values are log10 of IC50 expressed in µg/mL.

# smiles-representation, log10 IC50
rows = [
    ("COc1ccc(CNc2cc3c(Nc4cccc(Br)c4)c(C#N)cnc3cn2)cc1", 0.61),
    ("CN(C)c1cc[n+](-c2cc3c(Nc4cccc(Br)c4)c(C#N)cnc3cn2)cc1", 1.62),
    ("C[Si](C)(C)C#Cc1cc2c(Nc3cccc(Br)c3)c(C#N)cnc2cn1", 0.67),
    ("CC#CC(=O)Nc1cc2c(Nc3cccc(Br)c3)c(C#N)cnc2cn1", -0.77),
    ("N#Cc1cnc2cnc(NCCN3CCOCC3)cc2c1Nc1cccc(Br)c1", 1.61),
]

CN(C)C/C=C/C(=O)Nc1cc2c(Nc3cccc(Br)c3)c(C#N)cnc2cn1 has a reported log10 IC50 of -0.45
